Target: T1, mOrai1-hOrai1 ECL2 (SPTKPPAE) protein (human/mouse chimera, UniProt Q8BWG9 1-304 (mouse entry))
T1 construct: also called Ch
T1 sequence (Q8BWG9 other isoform, or with tags, fused parts or gaps): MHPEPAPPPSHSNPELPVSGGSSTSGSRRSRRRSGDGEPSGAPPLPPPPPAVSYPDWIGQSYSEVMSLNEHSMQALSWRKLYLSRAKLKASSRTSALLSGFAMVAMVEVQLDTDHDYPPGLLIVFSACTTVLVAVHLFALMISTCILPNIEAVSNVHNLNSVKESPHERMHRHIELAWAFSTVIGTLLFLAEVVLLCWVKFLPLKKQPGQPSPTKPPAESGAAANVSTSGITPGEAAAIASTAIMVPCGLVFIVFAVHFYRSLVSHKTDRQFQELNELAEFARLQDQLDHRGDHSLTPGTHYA
Experiment: flow cytometry on HEK-293 cells transfected with the chimera (loss of binding experiment)
quantity_measured: binding result

mAb 2B4.1 (antibody, human IgG2, lambda, V domains shown) VH: QVQLVQSGAEVKKPGASVKVSCKASGYTFTDYYMHWVRQAPGQGLEWMGWINPNSGGTNYVQKFQDRVTMTRDTSITTAYMELTRLRSDDTAVYYCAREEGDYGMDVWGQGTTVTVSS VL: QSVLTQPPSVSGAPGQRVTISCTGSNSNIGTGYDVHWYQKLPGTAPRLLIYSHFNRPSGVPDRFSGSTSGTSASLAITGLQAEDEADYYCQSYDSSLSGSVFGGGTKLTVLG : no binding
mAb 5B1.1 (antibody, human IgG2, lambda, V domains shown, fully human IgG2 lambda, Campaign 2; also called mAb 5Bl1.1) VH: QVQLVQSGAEVKKPGASVKVSCKASGYTFTDYYINWVRQAPGQGLEWMGWINPNSGGSSYAQKFQGRVTMTRDTSISTAHMELIRLRSDDTAVYYCARERGGIEDWFDPWGQGTLVTVSS VL: QSVLTQPPSVSGAPGQRVTISCTGSSSNIGAGYDVHWYQQLPGTAPKLLIYGNSNRPSGVPDRFSGSKSGTSASLAITKFQAEDEAVYYCQSYGSGLSGVVFGGGTKLTVLG : no binding
mAb 5C1.1 (antibody, human IgG2, lambda, V domains shown, fully human IgG2 lambda, Campaign 2) VH: QVQLVQSGAEVKKPGASVKVSCKASGYTFTDYYMNWVRQAPGQGLEWMGWINPNSGGTKYAQKFQGRVTMTRDTSIRTAYMELSRLRSDDTAVYYCAREYGGNSDWFDPWGQGTLVTVSS VL: QSVLTQPPSVSGAPGQRVTISCTGSSSNIGAGYDVHWYQQLPGTAPKLLIYGNSNRPSGVPDRFSGSKSGTSASLAITGLQAEDEADYYCQSYDNRLSDSVVIGGGTKLAVQG : no binding
